Each recorded value in this set is attributed to patent US11345659B2.

# measured_target: 20 S human housekeeping proteasome (Homo sapiens, UniProt P25787+P25789)
# Construct: purified from erythrocytes; purchased Enzo Life Sciences, Inc. (Farmingdale, N.Y.); host or cells: human erythrocytes
# experiment_notes: ChT-L peptidase activity of 20 S proteasome activated with Rpt5 peptide
# Assay type: biochemical
# measurement_conditions: ChT-L, Suc-LLVY-AMC substrate, 20 S activated with Rpt5 peptide; read-out: IC50
pIC50: −log10 of the molar value.
reported_property: pIC50

[[record]]
chemical_string = "COc1cc(CCCOC(=O)[C@@H]2CCCN(C(=O)OCc3ccccc3)C2)cc(OC)c1OC"
endpoint_result = 4.83

[[record]]
chemical_string = "O=C(OCCCc1ccccc1)[C@@H]1CCCN1C(=O)OCc1ccccc1"
endpoint_result = 5.18

[[record]]
chemical_string = "COc1cc(CCCOC(=O)[C@@H]2CCCN2C(=O)OCc2ccccc2)cc(OC)c1OC"
endpoint_result = 4.62

[[record]]
chemical_string = "O=C(OCc1ccccc1)[C@@H]1CCCN1C(=O)OCc1ccccc1"
endpoint_result = 4.47


---

# measured_target: 20 S human housekeeping proteasome (Homo sapiens, UniProt P25787+P25789)
# Construct: purified from erythrocytes; purchased Enzo Life Sciences, Inc. (Farmingdale, N.Y.); host or cells: human erythrocytes
# experiment_notes: ChT-L peptidase activity of 20 S proteasome activated with Rpt5 peptide
# Assay type: biochemical
# measurement_conditions: ChT-L, 20 S activated with Rpt5 peptide
reported_property: ChT-L inhibitory activity in words

[[record]]
chemical_string = "O=C(OCCc1ccccc1)[C@@H]1CCCN1C(=O)OCc1ccccc1"
endpoint_result = "decreased activity"

[[record]]
chemical_string = "O=C(O)[C@@H]1CCCCN1C(=O)OCc1ccccc1"
endpoint_result = "inactive"

[[record]]
chemical_string = "O=C(OCc1ccccc1)[C@@H]1CCCN1C(=O)OCc1ccccc1"
endpoint_result = "decreased activity"

[[record]]
chemical_string = "CCCOC(=O)[C@@H]1CCCCN1C(=O)OCc1ccccc1"
endpoint_result = "inactive"


---

# measured_target: 20 S human housekeeping proteasome (Homo sapiens, UniProt P25787+P25789)
# Construct: purified from erythrocytes; purchased Enzo Life Sciences, Inc. (Farmingdale, N.Y.); host or cells: human erythrocytes
# experiment_notes: ChT-L peptidase activity of 20 S proteasome activated with Rpt5 peptide
# Assay type: biochemical
# measurement_conditions: summary of FIG. 3A and FIG. 3B; read-out: in vitro determined IC50 values for peptidase activities
reported_property: IC50

[[record]]
chemical_string = "COc1cc(CCCOC(=O)[C@@H]2CCCCN2C(=O)OCc2ccccc2)cc(OC)c1OC"
endpoint_result = "2000 to 3000 nM"


---

# measured_target: 20 S human housekeeping proteasome (Homo sapiens, UniProt P25787+P25789)
# Construct: purified from erythrocytes; purchased Enzo Life Sciences, Inc. (Farmingdale, N.Y.); host or cells: human erythrocytes
# experiment_notes: ChT-L peptidase activity of 20 S proteasome activated with Rpt5 peptide
# Type: biochemical
# measurement_conditions: ChT-L, Suc-LLVY-AMC substrate, 20 S activated with Rpt5 peptide; read-out: IC50
pIC50: −log10 of the molar value.
Item-by-item account of pIC50
reported_property: pIC50

[[record]]
molecule = "O=C(O)[C@@H]1CCCCN1C(=O)OCc1ccccc1 [Compound 11]"
sign_qualifier = "<"
endpoint_result = 4.30

[[record]]
molecule = "COc1cc(CCCOC(=O)[C@@H]2CCCCN2C(=O)OCc2ccccc2)cc(OC)c1OC [Compound 3]"
sign_qualifier = "="
endpoint_result = 5.70

[[record]]
molecule = "COc1cc(CCCOC(=O)C2CCCCN2C(=O)OCc2ccccc2)cc(OC)c1OC (racemic) [Compound 2]"
sign_qualifier = "="
endpoint_result = 4.94

[[record]]
molecule = "O=C(OCCCc1ccccc1)[C@@H]1CCCCN1C(=O)OCc1ccccc1 [Compound 9]"
sign_qualifier = "="
endpoint_result = 5.59

[[record]]
molecule = "COC(=O)N1CCCC[C@H]1C(=O)OCCCc1cc(OC)c(OC)c(OC)c1 [Compound 5]"
sign_qualifier = "<"
endpoint_result = 4.30

[[record]]
molecule = "COc1cc(CCCOC(=O)[C@@H]2CCCCN2C(=O)OCC(C)C)cc(OC)c1OC [Compound 4]"
sign_qualifier = "="
endpoint_result = 4.82

[[record]]
molecule = "COc1cc(CCOC(=O)[C@@H]2CCCCN2C(=O)OCc2ccccc2)cc(OC)c1OC [Compound 7]"
sign_qualifier = "="
endpoint_result = 4.70

[[record]]
molecule = "CCCOC(=O)[C@@H]1CCCCN1C(=O)OCc1ccccc1 [Compound 10]"
sign_qualifier = "<"
endpoint_result = 4.30

[[record]]
molecule = "O=C(OCCc1ccccc1)[C@@H]1CCCN1C(=O)OCc1ccccc1 [Compound 14]"
sign_qualifier = "="
endpoint_result = 4.72

[[record]]
molecule = "COc1cc(CCCOC(=O)[C@@H]2CCCCN2C(=O)C(=O)C2CCCCC2)cc(OC)c1OC (racemic) [Compound B1]"
sign_qualifier = "="
endpoint_result = 5.24

[[record]]
molecule = "COc1cc(COC(=O)[C@@H]2CCCCN2C(=O)OCc2ccccc2)cc(OC)c1OC (stereo in doubt) [Compound 8]"
sign_qualifier = "="
endpoint_result = 4.70


---

# measured_target: latent core 20 S proteasome (Homo sapiens, UniProt P25787+P25789)
# Construct: purified from erythrocytes; purchased Enzo Life Sciences, Inc. (Farmingdale, N.Y.); host or cells: human erythrocytes
# experiment_notes: PGPH peptidase activity of latent 20 S core
# Format: biochemical
pIC50: −log10 of the molar value.
reported_property: pIC50

[[record]]
chemical_string = "COc1cc(CCCOC(=O)[C@@H]2CCCCN2C(=O)OCc2ccccc2)cc(OC)c1OC"
endpoint_result = "< 4.30"


---

# measured_target: latent core 20 S proteasome (Homo sapiens, UniProt P25787+P25789)
# Construct: purified from erythrocytes; purchased Enzo Life Sciences, Inc. (Farmingdale, N.Y.); host or cells: human erythrocytes
# experiment_notes: T-L peptidase activity of latent 20 S core
# Assay type: biochemical
reported_property: IC50

[[record]]
chemical_string = "COc1cc(CCCOC(=O)[C@@H]2CCCCN2C(=O)OCc2ccccc2)cc(OC)c1OC"
endpoint_result = "> 50 µM"

